Each entry below carries its recorded refractive index.
assay: refractive index (Na D-line) (dimensionless); conditions: 328.15 K; 101.33 kPa; Liquid; Standard Abbe refractometry
Numbers after ± are expanded uncertainties.
observationType: refractive index

CCCCCCCCCCCCCC[P+](CCCCCC)(CCCCCC)CCCCCC.N#C[N-]C#N [tetradecyl(trihexyl)phosphonium dicyanamide]    1.47421 ± 0.00037
CCCCCCCCCCCCCC[P+](CCCCCC)(CCCCCC)CCCCCC.O=S(=O)([N-]S(=O)(=O)C(F)(F)F)C(F)(F)F    1.43948 ± 0.00037
CC(CC(C)(C)C)CP(=O)([O-])CC(C)CC(C)(C)C.CCCCCCCCCCCCCC[P+](CCCCCC)(CCCCCC)CCCCCC    1.46216 ± 0.00037
CCCCCCCCCCCCCC[P+](CCCCCC)(CCCCCC)CCCCCC.[Cl-] [trihexyl(tetradecyl)phosphonium chloride]    1.4721 ± 0.00037

====

experiment: refractive index (Na D-line) (dimensionless); conditions: 308.15 K; 101.33 kPa; Liquid; Standard Abbe refractometry
observationType: refractive index

CCCCCCCCCCCCCC[P+](CCCCCC)(CCCCCC)CCCCCC.[Cl-] [trihexyl(tetradecyl)phosphonium chloride]    1.47973
CCCCCCCCCC(=O)[O-].CCCCCCCCCCCCCC[P+](CCCCCC)(CCCCCC)CCCCCC [trihexyltetradecylphosphonium decanoate]    1.46896
CCCCCCCCCCCCCC[P+](CCCCCC)(CCCCCC)CCCCCC.CS(=O)(=O)[O-] [trihexyltetradecylphosphonium methanesulfonate]    1.47025
CC(CC(C)(C)C)CP(=O)([O-])CC(C)CC(C)(C)C.CCCCCCCCCCCCCC[P+](CCCCCC)(CCCCCC)CCCCCC    1.46879
CCCCCCCCCCCCCC[P+](CCCCCC)(CCCCCC)CCCCCC.O=S(=O)([N-]S(=O)(=O)C(F)(F)F)C(F)(F)F    1.44637
CCCCCCCCCCCCCC[P+](CCCCCC)(CCCCCC)CCCCCC.N#C[N-]C#N [tetradecyl(trihexyl)phosphonium dicyanamide]    1.48064
CCCCCCCCCCCCCC[P+](CCCCCC)(CCCCCC)CCCCCC.[Br-] [tetradecyltrihexylphosphonium bromide]    1.48654

====

# surface tension liquid-gas values compiled below
details: 318 K, Pendant drop shape
observationType: surface tension liquid-gas (mN/m)

CCCCCCCCCCCCCC[P+](CCCCCC)(CCCCCC)CCCCCC.N#C[N-]C#N [tetradecyl(trihexyl)phosphonium dicyanamide]    30.9
CCCCCCCCCC(=O)[O-].CCCCCCCCCCCCCC[P+](CCCCCC)(CCCCCC)CCCCCC [trihexyltetradecylphosphonium decanoate]    27.8
CCCCCCCCCCCCCC[P+](CCCCCC)(CCCCCC)CCCCCC.[Cl-] [trihexyl(tetradecyl)phosphonium chloride]    29.3
CCCCCCCCCCCCCC[P+](CCCCCC)(CCCCCC)CCCCCC.[Br-] [tetradecyltrihexylphosphonium bromide]    29.6

====

The reader will find reported refractive index values listed item by item below.
experiment: refractive index (Na D-line) (dimensionless); details: 328.15 K; 101.33 kPa; Liquid; Standard Abbe refractometry
observationType: refractive index

CCCCCCCCCCCCCC[P+](CCCCCC)(CCCCCC)CCCCCC.CS(=O)(=O)[O-] [trihexyltetradecylphosphonium methanesulfonate]    1.4638
CCCCCCCCCC(=O)[O-].CCCCCCCCCCCCCC[P+](CCCCCC)(CCCCCC)CCCCCC [trihexyltetradecylphosphonium decanoate]    1.46165
CCCCCCCCCCCCCC[P+](CCCCCC)(CCCCCC)CCCCCC.[Br-] [tetradecyltrihexylphosphonium bromide]    1.47999

====

# maps each entry to its refractive index
assay: refractive index (Na D-line) (dimensionless); settings: 323.15 K; 101.33 kPa; Liquid; Standard Abbe refractometry
observationType: refractive index

CC(CC(C)(C)C)CP(=O)([O-])CC(C)CC(C)(C)C.CCCCCCCCCCCCCC[P+](CCCCCC)(CCCCCC)CCCCCC    1.46383
CCCCCCCCCCCCCC[P+](CCCCCC)(CCCCCC)CCCCCC.[Br-] [tetradecyltrihexylphosphonium bromide]    1.48167
CCCCCCCCCCCCCC[P+](CCCCCC)(CCCCCC)CCCCCC.N#C[N-]C#N [tetradecyl(trihexyl)phosphonium dicyanamide]    1.47585
CCCCCCCCCC(=O)[O-].CCCCCCCCCCCCCC[P+](CCCCCC)(CCCCCC)CCCCCC [trihexyltetradecylphosphonium decanoate]    1.46341
CCCCCCCCCCCCCC[P+](CCCCCC)(CCCCCC)CCCCCC.O=S(=O)([N-]S(=O)(=O)C(F)(F)F)C(F)(F)F    1.44158
CCCCCCCCCCCCCC[P+](CCCCCC)(CCCCCC)CCCCCC.CS(=O)(=O)[O-] [trihexyltetradecylphosphonium methanesulfonate]    1.4654
CCCCCCCCCCCCCC[P+](CCCCCC)(CCCCCC)CCCCCC.[Cl-] [trihexyl(tetradecyl)phosphonium chloride]    1.47387

====

assay: refractive index (Na D-line) (dimensionless); conditions: 338.15 K; 101.33 kPa; Liquid; Standard Abbe refractometry
observationType: refractive index

CCCCCCCCCCCCCC[P+](CCCCCC)(CCCCCC)CCCCCC.CS(=O)(=O)[O-] [trihexyltetradecylphosphonium methanesulfonate]    1.46053
CCCCCCCCCCCCCC[P+](CCCCCC)(CCCCCC)CCCCCC.[Cl-] [trihexyl(tetradecyl)phosphonium chloride]    1.46854
CCCCCCCCCC(=O)[O-].CCCCCCCCCCCCCC[P+](CCCCCC)(CCCCCC)CCCCCC [trihexyltetradecylphosphonium decanoate]    1.45828
CCCCCCCCCCCCCC[P+](CCCCCC)(CCCCCC)CCCCCC.O=S(=O)([N-]S(=O)(=O)C(F)(F)F)C(F)(F)F    1.43681
CC(CC(C)(C)C)CP(=O)([O-])CC(C)CC(C)(C)C.CCCCCCCCCCCCCC[P+](CCCCCC)(CCCCCC)CCCCCC    1.45893
CCCCCCCCCCCCCC[P+](CCCCCC)(CCCCCC)CCCCCC.N#C[N-]C#N [tetradecyl(trihexyl)phosphonium dicyanamide]    1.4709
CCCCCCCCCCCCCC[P+](CCCCCC)(CCCCCC)CCCCCC.[Br-] [tetradecyltrihexylphosphonium bromide]    1.47677

====

test: refractive index (Na D-line) (dimensionless); settings: 298.15 K; 101.33 kPa; Liquid; Standard Abbe refractometry
observationType: refractive index

CCCCCCCCCC(=O)[O-].CCCCCCCCCCCCCC[P+](CCCCCC)(CCCCCC)CCCCCC [trihexyltetradecylphosphonium decanoate]    1.47242
CCCCCCCCCCCCCC[P+](CCCCCC)(CCCCCC)CCCCCC.[Br-] [tetradecyltrihexylphosphonium bromide]    1.48977
CCCCCCCCCCCCCC[P+](CCCCCC)(CCCCCC)CCCCCC.CS(=O)(=O)[O-] [trihexyltetradecylphosphonium methanesulfonate]    1.47346

====

experiment: refractive index (Na D-line) (dimensionless); conditions: 343.15 K; 101.33 kPa; Liquid; Standard Abbe refractometry
Recorded refractive index for the following compounds
observationType: refractive index

CCCCCCCCCCCCCC[P+](CCCCCC)(CCCCCC)CCCCCC.[Br-] [tetradecyltrihexylphosphonium bromide]    1.47511
CCCCCCCCCCCCCC[P+](CCCCCC)(CCCCCC)CCCCCC.[Cl-] [trihexyl(tetradecyl)phosphonium chloride]    1.46677
CC(CC(C)(C)C)CP(=O)([O-])CC(C)CC(C)(C)C.CCCCCCCCCCCCCC[P+](CCCCCC)(CCCCCC)CCCCCC    1.45716
CCCCCCCCCCCCCC[P+](CCCCCC)(CCCCCC)CCCCCC.O=S(=O)([N-]S(=O)(=O)C(F)(F)F)C(F)(F)F    1.43524
CCCCCCCCCCCCCC[P+](CCCCCC)(CCCCCC)CCCCCC.N#C[N-]C#N [tetradecyl(trihexyl)phosphonium dicyanamide]    1.46926
CCCCCCCCCCCCCC[P+](CCCCCC)(CCCCCC)CCCCCC.CS(=O)(=O)[O-] [trihexyltetradecylphosphonium methanesulfonate]    1.45895
CCCCCCCCCC(=O)[O-].CCCCCCCCCCCCCC[P+](CCCCCC)(CCCCCC)CCCCCC [trihexyltetradecylphosphonium decanoate]    1.4566

====

assay: refractive index (Na D-line) (dimensionless); conditions: 318.15 K; 101.33 kPa; Liquid; Standard Abbe refractometry
± gives the expanded uncertainty stated by the source.
Measured refractive index, listed per entry.
observationType: refractive index

CCCCCCCCCCCCCC[P+](CCCCCC)(CCCCCC)CCCCCC.CS(=O)(=O)[O-] [trihexyltetradecylphosphonium methanesulfonate]    1.46702 ± 0.00037
CCCCCCCCCCCCCC[P+](CCCCCC)(CCCCCC)CCCCCC.[Cl-] [trihexyl(tetradecyl)phosphonium chloride]    1.4757 ± 0.00037
CCCCCCCCCCCCCC[P+](CCCCCC)(CCCCCC)CCCCCC.[Br-] [tetradecyltrihexylphosphonium bromide]    1.4833 ± 0.00037
CCCCCCCCCC(=O)[O-].CCCCCCCCCCCCCC[P+](CCCCCC)(CCCCCC)CCCCCC [trihexyltetradecylphosphonium decanoate]    1.46548 ± 0.00037
CC(CC(C)(C)C)CP(=O)([O-])CC(C)CC(C)(C)C.CCCCCCCCCCCCCC[P+](CCCCCC)(CCCCCC)CCCCCC    1.46546 ± 0.00037
CCCCCCCCCCCCCC[P+](CCCCCC)(CCCCCC)CCCCCC.N#C[N-]C#N [tetradecyl(trihexyl)phosphonium dicyanamide]    1.47744 ± 0.00037
CCCCCCCCCCCCCC[P+](CCCCCC)(CCCCCC)CCCCCC.O=S(=O)([N-]S(=O)(=O)C(F)(F)F)C(F)(F)F    1.44317 ± 0.00037
